Examples of variants with documented ratio to parent follow.
B1: B7-H6, wild type, stably expressed on B7-H6 knockout 293T cells [modified: N-linked glycans at N43, N57, N174, N208, N216 and N242; N-linked glycans at N43, N57, N174, N208, N216 and N242] [human] / rhNKp30-his protein [human] (parent)
chain 1: LWVSQPPEIRTLEGSSAFLPCSFNASQGRLAIGSVTWFRDEVVPGKEVRNGTPEFRGRLAPLASSRFLHDHQAELHIRDVRGHDASIYVCRVEVLGLGVGTGNGTRLVVEKEHPQLG
chain 2: DLKVEMMAGGTQITPLNDNVTIFCNIFYSQPLNITSMGITWFWKSLTFDKEVKVFEFFGDHQEAFRPGAIVSPWRLKSGDASLRLPGIQLEEAGEYRCEVVVTPLKAQGTVQLEVVASPASRLLLDQVGMKENEDKYMCESSGFYPEAINITWEKQTQKFPHPIEISEDVITGPTIKNMDGTFNVTSCLKLNSSQEDPGTVYQCVVRHASLHTPLRSNFTLTAARHSLSETEKTDNFSIHWWPISFIGVGLVLLIVLIPWKKICNKSSSAYTPLKCILKHWNSFDTQTLKKEHLIFFCTRAWPSYQLQDGEAWPPEGSVNINTIQQLDVFCRQEGKWSEVPYVQAFFALRDNPDLCQCCRIDPALLTVTSGKSIDDNSTKSEKQTPREHSDAVPDAPILPVSPIWEPPPATTSTTPVLSSQPPTLLLPLQ

variants of: B1; test: flow cytometry on cells; conditions: with rhNKp30-his protein [human]; 293T cells stably expressing B7-H6, stained with his-tagged NKp30; parent: 1; read off a plot
Format: numeric value only, no unit, no commentary.

> print(dat)
     mutation.id  reported.property  numeric.value
1  chain 2 N150Q    ratio to parent            0.8
2  chain 2 N192Q    ratio to parent           0.42
3   chain 2 N19Q    ratio to parent           0.14

What value of ratio to parent has been recorded for this entry: chain 2 N184Q 0.22

Same question for chain 2 N218Q please. 0.86

What do you have for chain 2 N33Q ? 0.57
